Assay: Brain and plasma concentrations in mice after intraperitoneal administration (LC-MS-MS), non-compartmental analysis
Format: in vivo
Conditions: male, Swiss-Webster, mouse, brain, ip, 10 mg/kg, 2 h, 10 mg/kg i.p., individual mice; read-out: [drug],brain (free base equivalent)
Quick reference: concentration at 2 h of the listed items.

Below, 2 molecules whose answers are already recorded.
Oc1ccc2c3c1O[C@H]1c4[nH]c5c(c4C[C@@]4(O)[C@@H](C2)N(CC2CC2)CC[C@]314)C[C@@]1(O)[C@H]2Cc3ccc(O)c4c3[C@@]1(CCN2CC1CC1)[C@H]5O4 ... 169 ng/g
N=C(N)Nc1ccc2[nH]c3c(c2c1)C[C@@]1(O)[C@H]2Cc4ccc(O)c5c4[C@@]1(CCN2CC1CC1)[C@H]3O5 ... < 120 ng/g

Next molecule, concentration at 2 h to be filled in.
Incoming: Would you kindly share the measured concentration at 2 h for `CC(C)[C@@H](CN1CC[C@@](C)(c2cccc(O)c2)[C@@H](C)C1)NC(=O)[C@H]1Cc2ccc(O)cc2CN1` ?
Outgoing: 30 ng/g
